- Target System: Rap guanine nucleotide exchange factor 3 (Homo sapiens)
- Experiment Summary: Confirmatory qHTS for antagonist of cAMP-regulated guanine nucleotide exchange factor 3 (EPAC1) (AID 1645880); further: nearly all actives have a fitted effect of over 55% in size
- Experimental Parameters: EPAC1 Rap1B-BODIPY-GDP exchange, fluorescence; series mostly up to 115 µM
Results filed as inconclusive are left out. Activity calls are given as the source filed them. The call rests on the fitted dose curve; in most records, active means well fitted inhibition curve with a large enough effect; inconclusive means small, poorly fitted or top-dose-only effect; inactive means no such curve, though single readings can be large or run the other way.
Labels: Yes for active, No for inactive

# Compound, Assigned Label
measured = [
    ("CCOC(=O)C1=C(CSc2nc3ccccc3s2)NC(=O)NC1c1ccc(OC)cc1 (stereo unspecified)", "No"),
    ("Cc1ccc(C)c(N(C)C(=O)c2cn(C)c(=O)c3ccccc23)c1", "No"),
    ("c1ccc(-c2nnc3sc(CN4CCC5(CC4)OCCO5)cn23)cc1", "No"),
    ("Cc1[nH]n(-c2ccccc2)c(=O)c1C(c1cccc([N+](=O)[O-])c1O)c1c(C)[nH]n(-c2ccccc2)c1=O", "Yes"),
    ("Cc1ccc(S(=O)(=O)N2[C@@H](c3ccc(C(C)(C)C)cc3)C(C(=O)O)=CC[C@H]2c2ccc(C(C)C)cc2)cc1", "Yes"),
    ("COc1ccccc1C(=O)NC(=O)COC(=O)C1CC1", "No"),
    ("O=C(c1ccco1)N(Cc1ccc([N+](=O)[O-])cc1)c1ccc(Cl)cc1", "No"),
    ("N#CC(=Cc1ccc(-c2ccccc2)cc1)C(=O)c1ccccc1", "Yes"),
    ("COc1ccc(S(=O)(=O)N2CCC[C@H]2C(=O)N2CCC[C@H]2C(=O)NCc2ccccc2)cc1C", "No"),
    ("Cc1cccc(Cc2cnc(N3C(=N)SC(c4ccccc4)C3=O)s2)c1 (stereo unspecified)", "No"),
    ("CS(=O)(=O)c1cccc(C(=O)OCC(=O)c2ccc3c(c2)OCCO3)c1", "No"),
    ("O=C(c1ccccc1[N+](=O)[O-])N1CCN(c2ccc(N3CCOCC3)nn2)CC1", "No"),
    ("Cc1ccc(C)c(-n2c3nc(=O)[nH]c(=O)c-3cc3cc([N+](=O)[O-])ccc32)c1", "Yes"),
    ("O=C(CCc1ccc(O)c(O)c1)N/N=C/c1cc2c(cc1[N+](=O)[O-])OCO2", "Yes"),
    ("CN(C)C(=S)Oc1ccccc1-c1ccccc1OC(=S)N(C)C", "No"),
    ("COC(=O)c1c(SC)nc2ccccc2c1OCc1cc(C)ccc1C", "No"),
    ("O=C(CCCCCl)Nc1c2c(nc3ccccc13)CCC2", "No"),
    ("Cc1cccc(NC(=O)Cn2c(O)c(N=NC(=O)c3ccncc3)c3ccccc32)c1", "No"),
    ("CC1CCN(c2ccc3c(c2)S(=O)(=O)c2ccccc2C3=O)CC1", "No"),
    ("O=C(CCNC(=O)c1ccccc1Cl)NCC(c1ccc(F)cc1)N1CCOCC1 (stereo unspecified)", "No"),
    ("Cc1c(Cl)cccc1NC(=O)CN(CCc1ccccc1)S(=O)(=O)c1ccccc1", "No"),
    ("Cc1ccc2cc(CN(Cc3ccco3)C(=O)c3ccco3)c3nnnn3c2c1", "No"),
    ("O=C(Cn1c(=O)oc2cc(S(=O)(=O)N3CCCCC3)ccc21)N1CCc2ccccc2C1", "No"),
    ("COc1cc(-c2noc(C)c2-c2ccc3[nH]ccc3c2)cc(OC)c1OC", "No"),
    ("NS(=O)(=O)c1ccc(CCNC(=O)c2ccc3nccnc3c2)cc1", "Yes"),
    ("CC1CC(C)CN(c2nc3c(c(=O)n(C)c(=O)n3C)n2CCSc2ncccn2)C1 (stereo unspecified)", "No"),
    ("CN(C)CCNC(=O)c1cccc(-c2cnc3c(NC=O)cc(-c4cccc(C(F)(F)F)c4)cn23)c1", "No"),
    ("CC(C)OC(=O)NC(c1ccccc1)C(Cl)(Cl)Cl (stereo unspecified)", "No"),
    ("Cc1cc(Cl)ccc1NC(=O)Cn1nc(C)c2c(C)n(-c3ccccc3)nc2c1=O", "Yes"),
    ("Cc1cscc1-c1ccc(C(=O)Nc2c(C)cccc2C)o1", "No"),
    ("CCc1ccccc1C1=CC(=O)C[C@H](c2ccc(OC)cc2)C1", "No"),
    ("COc1ccccc1/C=C1\\SC(=S)N(NS(=O)(=O)c2ccc(C)cc2)C1=O", "Yes"),
    ("O=C1NC(=Nc2ccccc2Cl)S/C1=C\\c1cc([N+](=O)[O-])ccc1O", "Yes"),
    ("CCOC(=O)N1CCN(C(=O)c2cc(S(=O)(=O)N3CCc4ccccc43)ccc2OC)CC1", "No"),
    ("O=C1NC(=O)C(c2ccccc2)(c2ccccc2)N1S(=O)(=O)c1ccccc1", "No"),
    ("C#C[C@]1(OC(C)=O)CCC2C3CCC4=CC(=O)CC[C@@H]4C3CC[C@@]21C (stereo partly specified)", "No"),
    ("N#C/C(=C/c1ccc(N2CCOCC2)o1)C(=O)Nc1ccccc1", "No"),
    ("Cc1ccc(C)c(COC(=O)c2cc(S(=O)(=O)N3CCCCC3)ccc2N2CCOCC2)c1", "No"),
    ("O=C(Nc1ccc(F)cc1F)C1CCN(c2ncccn2)CC1", "No"),
    ("CCc1ccccc1N(CC(=O)NCCc1ccccc1)C(=O)CCC(=O)Nc1ccccn1", "No"),
    ("COc1ccc(C=NNc2ccc(S(=O)(=O)Nc3ccccc3C(=O)O)cc2[N+](=O)[O-])c(OC)c1", "Yes"),
]

These data points were gathered from PubChem BioAssay (NCATS).
